Tested on: T lymphocyte cell line Jurkat E6-1
Test: Cytotoxicity (CCK-8 viability)
Assay type: cell-based
Details: 20 μM, 20 h culture
Recorded measurements of viability relative to non-treated cells, 20 μM (%), one per entry
// units = %; emit number, no label

Please review the following examples before continuing.
> print(dat)
                                   molecule  recorded.number
1                    CCCCCCNC(=O)c1ccccc1OC               92
2  CCCCC(CC)CNC(=O)c1ccccc1F (stereo not drawn)             92.2

--- query ---
Query: Would you mind telling me what viability relative to non-treated cells, 20 μM (%) value was observed for `C=CCCCCCCCCCNC(=O)c1ccccc1F` ?
Reply: 91.2

FYI, the data here is from patent US20240307340A1.
